Molecular target: purified catalytic domain of recombinant human TACE (rhTACEc) (Homo sapiens, UniProt P78536, N452Q/S266A)
Construct: Residue 215 to 477 with two mutation (S266A and N452Q) and a 6×His tail; 6xHis (C); made in house; host or cells: baculovirus/Hi5 insect cells
Sequence (P78536 215-477 S266A/N452Q): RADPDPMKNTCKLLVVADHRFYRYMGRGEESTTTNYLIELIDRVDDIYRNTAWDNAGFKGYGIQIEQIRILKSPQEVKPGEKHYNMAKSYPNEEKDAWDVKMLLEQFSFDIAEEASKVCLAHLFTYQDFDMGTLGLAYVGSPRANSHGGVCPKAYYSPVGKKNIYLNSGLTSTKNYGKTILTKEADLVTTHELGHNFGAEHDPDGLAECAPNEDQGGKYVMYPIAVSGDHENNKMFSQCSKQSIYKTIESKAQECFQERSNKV
Assay: TACE kinetic assay: cleavage of internally quenched peptide substrate SPDL-3, fluorescence
Assay type: biochemical
Details: TACE inhibitory activity, class symbols; read-out: Ki
measured_endpoint: Ki

For orientation, consider the following solved cases.
| compound | Ki |
| --- | --- |
| C[C@@H](NC(=O)[C@H](O)[C@@H](O)C(=O)N1CCCN1c1cccc(Cl)c1)c1ccc(-n2cccn2)cc1 | 100 to 1000 nM |
| C[C@@H](NC(=O)[C@H](O)[C@@H](O)C(=O)N1CC(C)(C)CC1(C)c1cccc(Cl)c1)c1ccc(-n2cccn2)cc1 (stereo partly drawn) | 20 to 100 nM |

Documented Ki of C[C@@H](NC(=O)[C@H](O)[C@@H](O)C(=O)N1CCc2c(cnn2C)C1)c1ccc(-n2cccn2)cc1 : 20 to 100 nM
